Source listed as PubChem BioAssay (Tox21).

- assay_text: A CellTox Green Cytotoxicity Assay to monitor cytotoxicity in HepG2 cells - 24 hour (AID 1224878); also: nearly all actives have a fitted effect of over 45% in size
- conditions: CellTox Green fluorescence; series mostly up to 76.8 µM
Records with an inconclusive call do not appear. Active and inactive are the calls of the source. Calls follow the shape of the dose curve; as a rule, active = well fitted activation curve with a large enough effect in the repeat runs; inconclusive = weak or mixed curves; inactive = flat fitted curve, though single readings scatter.
Use one of these outcomes when replying: active, inactive

-- ask Entry CN1CCN(C(=O)O[C@H]2c3nccnc3C(=O)N2c2ccc(Cl)cn2)CC1 : call = ?
-- reply inactive

-- ask Entry NC1=NC(=O)C(c2ccccc2)O1 (stereo unspecified) : call = ?
-- reply inactive

-- ask Entry COCC(=O)N(c1c(C)cccc1C)N1CCOC1=O : call = ?
-- reply inactive

-- ask Entry N#Cc1c(Cl)cccc1Cl : call = ?
-- reply inactive

-- ask Entry COC(C)(C)C : call = ?
-- reply inactive

-- ask Entry CCOP(=S)(Oc1cnc(C(C)(C)C)nc1)OC(C)C (stereo unspecified) : call = ?
-- reply inactive

-- ask Entry CCNc1nc(NC(C)C)nc(OC)n1 : call = ?
-- reply inactive

-- ask Entry CN/C(=N\[N+](=O)[O-])NCC1CCOC1 (stereo unspecified) : call = ?
-- reply inactive

-- ask Entry CC1CCC(=O)O1 (stereo unspecified) : call = ?
-- reply inactive

-- ask Entry C[N+](=O)[O-] : call = ?
-- reply inactive

-- ask Entry CCN(CC)c1nc(C)cc(OP(=S)(OC)OC)n1 : call = ?
-- reply inactive

-- ask Entry O=c1oc2ccccc2c(O)c1C1CCCc2ccccc21 (stereo unspecified) : call = ?
-- reply inactive

-- ask Entry CC(Cl)(Cl)[N+](=O)[O-] : call = ?
-- reply inactive

-- ask Entry O=P(O)(Oc1ccccc1)Oc1ccccc1 : call = ?
-- reply inactive

-- ask Entry CC(C)(C)OC(=O)c1ncn2c1[C@@H]1CCCN1C(=O)c1c(Br)cccc1-2 : call = ?
-- reply inactive

-- ask Entry CNC(=O)N(C)c1nc2ccccc2s1 : call = ?
-- reply inactive

-- ask Entry c1cc[c]([Hg][c]2ccccc2)cc1 : call = ?
-- reply active

-- ask Entry CCS(=O)(=O)C(C)(C)S(=O)(=O)CC : call = ?
-- reply inactive

-- ask Entry O=[N+]([O-])c1ccc2c3c(cccc13)CC2 : call = ?
-- reply inactive

-- ask Entry N#CC(O)c1ccccc1 (stereo unspecified) : call = ?
-- reply inactive

-- ask Entry CCOP(=O)(N=C1SCCS1)OCC : call = ?
-- reply inactive

-- ask Entry C1CCC(C2CCCCC2)CC1 : call = ?
-- reply inactive

-- ask Entry CC(CC(C#N)(c1ccccc1)c1ccccc1)N(C)C (stereo unspecified) : call = ?
-- reply inactive

-- ask Entry Nc1c(Br)cc([N+](=O)[O-])cc1[N+](=O)[O-] : call = ?
-- reply inactive

-- ask Entry CCC1(c2ccccc2)C(=O)N=C(O)NC1=O (stereo unspecified) : call = ?
-- reply inactive

-- ask Entry CCN(CC)C(C)C(=O)c1ccccc1 (stereo unspecified) : call = ?
-- reply inactive

-- ask Entry CC(Oc1ccc(Oc2ncc(C(F)(F)F)cc2Cl)cc1)C(=O)O (stereo unspecified) : call = ?
-- reply inactive

-- ask Entry C[C@H]1CCC[C@H](O)CCCCCc2cc(O)cc(O)c2C(=O)O1 : call = ?
-- reply inactive

-- ask Entry O=C1OC(c2ccc(O)c(S(=O)(=O)O)c2)(c2ccc(O)c(S(=O)(=O)O)c2)c2c(Br)c(Br)c(Br)c(Br)c21 : call = ?
-- reply inactive

-- ask Entry CCOP(=O)(OCC)OP(=O)(OCC)OCC : call = ?
-- reply inactive

-- ask Entry COc1cc(OC)nc(Oc2cccc(Oc3nc(OC)cc(OC)n3)c2C(=O)O)n1 : call = ?
-- reply inactive

-- ask Entry Cc1cc(C)nc(Nc2ccccc2)n1 : call = ?
-- reply inactive

-- ask Entry CCOC(=O)C(c1c(O)c2ccccc2oc1=O)c1c(O)c2ccccc2oc1=O : call = ?
-- reply inactive

-- ask Entry OCCBr : call = ?
-- reply inactive

-- ask Entry COC(=O)C(c1ccccc1)C1CCCCN1 (stereo unspecified) : call = ?
-- reply inactive

-- ask Entry CCN(Cc1ccc(Cl)nc1)/C(=C/[N+](=O)[O-])NC : call = ?
-- reply inactive

-- ask Entry CC1(C)COP(Oc2ccccc2)OC1 : call = ?
-- reply inactive

-- ask Entry C#C[C@]1(O)C=C[C@H]2[C@@H]3CCC4=CC(=O)CC[C@@H]4[C@H]3CC[C@@]21CC : call = ?
-- reply inactive

-- ask Entry c1coc(-c2nc3ccccc3[nH]2)c1 : call = ?
-- reply inactive

-- ask Entry c1ccc(N2CCNCC2)cc1 : call = ?
-- reply inactive

-- ask Entry ClC(Cl)Br : call = ?
-- reply inactive

-- ask Entry O=C(CCN1CC1)OCC(CO)(COC(=O)CCN1CC1)COC(=O)CCN1CC1 : call = ?
-- reply inactive

-- ask Entry CCc1cc2c(s1)-n1c(C)nnc1CN=C2c1ccccc1Cl : call = ?
-- reply inactive

-- ask Entry CCC/C(=N\OCC)C1=C(O)CC(CC(C)SCC)CC1=O (stereo unspecified) : call = ?
-- reply inactive

-- ask Entry CC(C)[N+](=O)[O-] : call = ?
-- reply inactive

-- ask Entry ClCCCN1CCN(c2cccc(Cl)c2)CC1 : call = ?
-- reply inactive

-- ask Entry CC1CN1P(=O)(N1CC1C)N1CC1C (stereo unspecified) : call = ?
-- reply inactive

-- ask Entry Cc1cc(C)c(C(=O)P(=O)(C(=O)c2c(C)cc(C)cc2C)c2ccccc2)c(C)c1 : call = ?
-- reply inactive

-- ask Entry [Cl][Sn]([Cl])([Cl])[Cl] : call = ?
-- reply inactive

-- ask Entry CCOc1nc(C(Cl)(Cl)Cl)ns1 : call = ?
-- reply inactive

-- ask Entry CCOP(=S)(OCC)Oc1ncn(-c2ccccc2)n1 : call = ?
-- reply inactive
